Data provenance is ChEMBL document CHEMBL2021761.

biological target: DNA topoisomerase 1 (Homo sapiens) (UniProt P11387); test: Inhibition of recombinant human topoisomerase 1-mediated unwinding of supercoiled plasmid DNA assessed as DNA intercalation at 25 uM after 2 hrs by gel electrophoresis
Sequence (P11387 whole entry): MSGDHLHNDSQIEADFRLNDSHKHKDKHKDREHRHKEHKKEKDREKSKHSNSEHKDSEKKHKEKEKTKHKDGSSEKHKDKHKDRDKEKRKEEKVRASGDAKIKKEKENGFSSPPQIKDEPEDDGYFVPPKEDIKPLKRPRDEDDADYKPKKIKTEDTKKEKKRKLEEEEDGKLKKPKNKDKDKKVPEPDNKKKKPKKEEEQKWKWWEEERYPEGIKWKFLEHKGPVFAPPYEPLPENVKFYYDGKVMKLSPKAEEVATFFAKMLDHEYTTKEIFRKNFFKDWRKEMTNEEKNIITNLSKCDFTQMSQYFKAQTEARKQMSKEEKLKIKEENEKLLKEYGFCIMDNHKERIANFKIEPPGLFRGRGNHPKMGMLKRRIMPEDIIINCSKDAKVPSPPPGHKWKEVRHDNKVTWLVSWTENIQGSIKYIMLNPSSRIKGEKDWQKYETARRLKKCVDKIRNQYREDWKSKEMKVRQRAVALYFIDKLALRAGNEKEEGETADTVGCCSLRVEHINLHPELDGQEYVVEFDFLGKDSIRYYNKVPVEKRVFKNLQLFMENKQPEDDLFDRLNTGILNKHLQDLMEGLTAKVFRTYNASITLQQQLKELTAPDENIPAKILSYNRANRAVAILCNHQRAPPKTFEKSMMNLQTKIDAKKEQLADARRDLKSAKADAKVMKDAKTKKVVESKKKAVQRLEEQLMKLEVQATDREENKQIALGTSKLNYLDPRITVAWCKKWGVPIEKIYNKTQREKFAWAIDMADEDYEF
Calls of active or inactive are those of the source. No cut-off for these calls is given here.
# output must be one of active, inactive

CCOC(=O)c1c[nH]c2ccn3ccnc3c2c1=O: inactive
Cc1ccc(-c2ccc3ccn4ccnc4c3n2)cc1: inactive

Q. Entry "COc1ccc(-c2c[nH]c3ccn4ccnc4c3c2=O)cc1" : call = ?
A. inactive

Q. Entry "COc1ccc(-c2ccc3ccn4ccnc4c3n2)cc1" : call = ?
A. active

Q. Entry "COc1cc(-c2ccc3ccn4ccnc4c3n2)cc(OC)c1OC" : call = ?
A. active

Q. Entry "c1ccc(-c2ccc3ccn4ccnc4c3n2)cc1" : call = ?
A. active

Q. Entry "Clc1ccc(-c2ccc3ccn4ccnc4c3n2)cc1" : call = ?
A. active

----------
Task for the reader: assign each of the following compounds its reported log10 of GI50.
tested on: HT-29; experiment: Cytocidal activity against human HT-29 cells assessed as growth inhibition after 48 hrs by SRB assay; type: functional; conditions: HT-29, 48 h
Note the log scale: values are log10 of GI50 expressed in µM.

CCOC(=O)c1c[nH]c2ccn3cc(-c4ccccc4)nc3c2c1=O: 1.33
CCOC(=O)c1c[nH]c2ccn3cc(C(C)C)nc3c2c1=O: 1.64
COc1ccc(-c2ccc3ccn4ccnc4c3n2)cc1: 0.71

Lab note: each compound below needs its log10 of GI50 filled in.
1. Cc1ccc(-c2ccc3ccn4ccnc4c3n2)cc1
2. Clc1ccc(-c2ccc3ccn4ccnc4c3n2)cc1
3. COc1cc(-c2ccc3ccn4ccnc4c3n2)cc(OC)c1OC
4. COc1ccc(-c2c[nH]c3ccn4ccnc4c3c2=O)cc1
5. COc1cc(-c2c[nH]c3ccn4ccnc4c3c2=O)cc(OC)c1OC
6. CCOC(=O)c1c[nH]c2ccn3cc(C)nc3c2c1=O
7. O=c1c(-c2ccccc2)c[nH]c2ccn3ccnc3c12
8. CCOC(=O)c1c[nH]c2ccn3cc(-c4cccc(OC)c4)nc3c2c1=O

A.
1. 0.71
2. 0.53
3. 1.44
4. 0.93
5. 1.80
6. 1.80
7. 1.53
8. 1.85

Q. State its log10 of GI50 for this compound: "CCOC(=O)c1c[nH]c2ccn3ccnc3c2c1=O"
A. 0.65

----------
Task for the reader: assign each of the following molecules its reported GI50.
tested on: MCF7; test: Cytocidal activity against human MCF7 cells assessed as growth inhibition after 48 hrs by SRB assay; assay type: functional; conditions: MCF7, 48 h
Give bare numbers, in µM.

CCOC(=O)c1c[nH]c2ccn3cc(C(C)C)nc3c2c1=O: 37.3
COc1cc(-c2ccc3ccn4ccnc4c3n2)cc(OC)c1OC: 30.7
O=c1c(-c2ccccc2)c[nH]c2ccn3ccnc3c12: 20
COc1ccc(-c2ccc3ccn4ccnc4c3n2)cc1: 6.9
CCOC(=O)c1c[nH]c2ccn3cc(-c4cccc(OC)c4)nc3c2c1=O: 98

Lab note: each molecule below needs its GI50 filled in.
1. COc1cc(NS(C)(=O)=O)ccc1Nc1c2ccccc2nc2ccccc12
2. CCOC(=O)c1c[nH]c2ccn3ccnc3c2c1=O
3. Clc1ccc(-c2ccc3ccn4ccnc4c3n2)cc1

A.
1. 5.6
2. 0.3
3. 7.1
